target: Transcription intermediary factor 1-alpha (Homo sapiens, UniProt O15164); assay: Inhibition of recombinant TRIM24 (unknown origin) using biotinylated H3 peptide (H3K9me3K18ac) by AlphaScreen assay
Sequence (O15164 whole entry): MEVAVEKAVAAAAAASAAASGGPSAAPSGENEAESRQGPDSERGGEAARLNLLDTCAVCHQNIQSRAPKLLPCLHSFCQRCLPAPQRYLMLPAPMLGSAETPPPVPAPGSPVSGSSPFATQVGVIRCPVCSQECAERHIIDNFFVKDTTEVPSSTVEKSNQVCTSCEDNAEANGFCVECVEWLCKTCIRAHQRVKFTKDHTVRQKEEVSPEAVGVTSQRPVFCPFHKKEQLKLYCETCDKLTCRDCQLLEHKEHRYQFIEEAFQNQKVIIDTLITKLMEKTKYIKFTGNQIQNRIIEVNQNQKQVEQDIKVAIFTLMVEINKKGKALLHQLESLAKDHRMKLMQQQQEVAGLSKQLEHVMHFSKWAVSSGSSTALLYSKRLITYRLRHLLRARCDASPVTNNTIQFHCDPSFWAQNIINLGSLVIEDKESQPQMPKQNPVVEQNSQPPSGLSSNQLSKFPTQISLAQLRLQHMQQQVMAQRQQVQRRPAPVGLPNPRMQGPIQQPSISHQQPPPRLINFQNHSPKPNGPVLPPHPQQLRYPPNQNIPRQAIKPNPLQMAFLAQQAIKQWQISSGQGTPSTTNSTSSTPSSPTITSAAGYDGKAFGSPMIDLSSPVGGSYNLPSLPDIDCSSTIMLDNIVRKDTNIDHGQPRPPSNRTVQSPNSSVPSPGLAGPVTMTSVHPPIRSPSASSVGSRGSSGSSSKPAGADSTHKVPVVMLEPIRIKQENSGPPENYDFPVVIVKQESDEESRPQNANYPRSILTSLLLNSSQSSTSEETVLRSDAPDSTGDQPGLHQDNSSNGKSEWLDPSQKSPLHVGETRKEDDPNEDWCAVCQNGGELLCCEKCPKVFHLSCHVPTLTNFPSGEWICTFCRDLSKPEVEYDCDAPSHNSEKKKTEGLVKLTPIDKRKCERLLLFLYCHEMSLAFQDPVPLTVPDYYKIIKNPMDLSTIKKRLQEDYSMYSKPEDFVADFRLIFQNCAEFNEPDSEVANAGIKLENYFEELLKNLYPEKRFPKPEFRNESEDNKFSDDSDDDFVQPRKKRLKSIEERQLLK
pIC50: −log10 of the molar value.
Rule: Satisfied for pIC50 not less than 4, Not satisfied for anything less.

Use the examples below as a reference point.
**Q:** Does pIC50 meet or surpass 4 for COCCNc1c(-c2c[nH]c(C)n2)nc2ccc(C(=O)OC)cn12 ?
**A:** Satisfied

**Q:** Does pIC50 meet or surpass 4 for COc1ccc(CCNc2c(-c3ccc4nccn4c3)nc3ccc(Br)cn23)cc1OC ?
**A:** Not satisfied

***
**Q:** Does pIC50 meet or surpass 4 for CCCOc1ccn2c(C(C)=O)cc(-c3nc4ccccn4c3NC3CCCCC3)c2c1 ?
**A:** Not satisfied

**Q:** Does pIC50 meet or surpass 4 for COCCNc1c(-c2ccc3nccn3c2)nc2cnccn12 ?
**A:** Not satisfied

**Q:** Does pIC50 meet or surpass 4 for Brc1ccc2nc(-c3ccc4nccn4c3)c(NCCN3CCOCC3)n2c1 ?
**A:** Not satisfied

---

molecular target: Transcription intermediary factor 1-alpha (Homo sapiens); experiment: Inhibition of recombinant TRIM24 (unknown origin) using biotinylated H3 peptide (H3K9me3K18ac) by AlphaScreen assay
Overview of recorded log10 of IC50 for various compounds
Quick note: numbers are log10 of IC50, with µM as the unit.

**Q:** Please list log10 of IC50 recorded for the compound Cc1[nH]cnc1-c1nc2cnccn2c1NCc1ccc(C#N)cc1
**A:** 1.99

**Q:** Please list log10 of IC50 recorded for the compound COc1ccc(CCNc2c(-c3ccc4nccn4c3)nc3ccccn23)cc1OC
**A:** 3.18

**Q:** Please list log10 of IC50 recorded for the compound Cc1nc(-c2nc3ccc(Br)cn3c2NCc2ccc(C#N)cc2)c[nH]1
**A:** 1.91

**Q:** Please list log10 of IC50 recorded for the compound Cc1ncc(CO)c(C=O)c1O
**A:** -0.65

**Q:** Please list log10 of IC50 recorded for the compound Cc1nc(-c2nc3ccccn3c2NCc2ccc(C#N)cc2)c[nH]1
**A:** 2.43

**Q:** Please list log10 of IC50 recorded for the compound Cc1nc(-c2nc3ccc(Br)cn3c2NC2CCCCC2)c[nH]1
**A:** 1.11

**Q:** Please list log10 of IC50 recorded for the compound COC(=O)c1ccc2nc(-c3c[nH]c(C)n3)c(Nc3ccc(OC)cc3)n2c1
**A:** 2.05

**Q:** Please list log10 of IC50 recorded for the compound CCCOc1ccn2c(C(C)=O)cc(-c3nc4ccc(C(=O)OC)cn4c3NCCN3CCOCC3)c2c1
**A:** 3.02

***
**Q:** Please list log10 of IC50 recorded for the compound COc1ccc(CCNc2c(-c3nc[nH]c3C)nc3ccc(Br)cn23)cc1OC
**A:** 1.46

**Q:** Please list log10 of IC50 recorded for the compound O=Cc1ccccc1O
**A:** -0.66

**Q:** Please list log10 of IC50 recorded for the compound Cc1cccc2c(C=O)c[nH]c12
**A:** -0.80

**Q:** Please list log10 of IC50 recorded for the compound CCCOc1ccn2c(C(C)=O)cc(-c3nc4cnccn4c3Nc3ccc(OC)cc3)c2c1
**A:** 2.35

**Q:** Please list log10 of IC50 recorded for the compound COC(=O)c1ccc2nc(-c3nc[nH]c3C)c(NCc3ccc(C#N)cc3)n2c1
**A:** 2.50
